# assayed system: recombinant human GBA (beta-glucocerebrosidase) (Homo sapiens)
# experimental protocol: Beta-glucocerebrosidase (GBA, glucosylceramidase) assay (4-methylumbelliferyl-beta-D-pyranoside substrate, fluorescence)
pIC50: −log10 of the molar value.
Answer each item with its documented pIC50.

Exam item: I have this molecule here, Cc1cc(NCc2ccc(CN3C[C@H](O)[C@@H](O)[C@H](O)[C@H]3CO)cc2)cc(-n2ccnn2)c1 , and I need its recorded pIC50.
Marked response: < 4.00

Exam item: Item under review: O=[N+]([O-])c1cc(CN2CCCO2)ccc1NCc1cccc(CN2C[C@H](O)[C@@H](O)[C@H](O)[C@H]2CO)c1 . Reported pIC50?
Marked response: < 4.00

Exam item: For O=[N+]([O-])c1cc(C2=COCCO2)ccc1NCc1cccc(CN2C[C@H](O)[C@@H](O)[C@H](O)[C@H]2CO)c1 , what is its reported pIC50?
Marked response: < 4.00

---

# assayed system: recombinant human GBA (beta-glucocerebrosidase) (Homo sapiens)
# Sequence (P04062 40-536): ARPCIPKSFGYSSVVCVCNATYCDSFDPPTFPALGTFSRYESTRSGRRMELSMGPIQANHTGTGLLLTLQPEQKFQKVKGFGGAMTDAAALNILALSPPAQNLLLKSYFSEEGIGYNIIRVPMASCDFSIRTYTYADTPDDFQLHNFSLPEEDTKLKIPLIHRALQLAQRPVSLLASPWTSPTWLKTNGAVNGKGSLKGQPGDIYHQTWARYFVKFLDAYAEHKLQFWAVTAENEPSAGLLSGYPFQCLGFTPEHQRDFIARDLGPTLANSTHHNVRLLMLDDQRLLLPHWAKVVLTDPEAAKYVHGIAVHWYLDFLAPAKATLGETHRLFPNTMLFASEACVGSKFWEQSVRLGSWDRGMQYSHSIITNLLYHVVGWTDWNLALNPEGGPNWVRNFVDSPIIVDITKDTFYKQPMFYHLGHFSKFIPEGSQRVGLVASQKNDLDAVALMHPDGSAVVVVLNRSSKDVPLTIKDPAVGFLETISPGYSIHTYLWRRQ
# experimental protocol: Beta-glucocerebrosidase (GBA, glucosylceramidase) assay (4-methylumbelliferyl-beta-D-pyranoside substrate, fluorescence)
recorded endpoint: IC50

Exam item: Test system recombinant human GBA (beta-glucocerebrosidase) (Homo sapiens); read-out IC50; what value for N#Cc1cc(NCc2cccc(CN3C[C@H](O)[C@@H](O)[C@H](O)[C@H]3CO)c2)cc(N2CCOCC2)c1 [Compound 1042] ?
Marked response: > 100 µM

Exam item: // map CS(=O)(=O)c1cc(NCc2cccc(CN3C[C@H](O)[C@@H](O)[C@H](O)[C@H]3CO)c2)cc(-c2cccnn2)c1 [Compound 1040] to recorded IC50 (system: recombinant human GBA (beta-glucocerebrosidase) (Homo sapiens))
Marked response: > 100 µM

Exam item: # value lookup — system recombinant human GBA (beta-glucocerebrosidase) (Homo sapiens), readout IC50, item CS(=O)(=O)c1cc(NCc2cccc(CN3C[C@H](O)[C@@H](O)[C@H](O)[C@H]3CO)c2)cc(-c2ncccn2)c1 [Compound 1041]
Marked response: > 100 µM

Exam item: What is its IC50 for recombinant human GBA (beta-glucocerebrosidase) (Homo sapiens)? Entry: O=[N+]([O-])c1cc(N2C3CCC2COC3)ccc1NCc1ccc(CN2CC(O)C(O)C(O)C2CO)cc1 (stereo in doubt) [Compound 1018]
Marked response: > 100 µM

Exam item: What value of IC50 on recombinant human GBA (beta-glucocerebrosidase) (Homo sapiens) does [N-]=[N+]=Nc1ccc(N2CCN(CCN3C[C@H](O)[C@@H](O)[C@H](O)[C@H]3CO)CC2)c([N+](=O)[O-])c1 [Compound 1254] have?
Marked response: > 100 µM

Exam item: Checklist item: IC50 tested on recombinant human GBA (beta-glucocerebrosidase) (Homo sapiens), entry OC[C@@H]1[C@@H](O)[C@H](O)[C@@H](O)CN1Cc1cccc(CNc2ccc(-c3cccnn3)cc2)c1 [Compound 1083] , value?
Marked response: > 100 µM

Exam item: Find the measured IC50: item OC[C@@H]1[C@@H](O)[C@H](O)[C@@H](O)CN1Cc1cccc(CNc2cc(-c3ncccn3)cc(C3CC3)c2)n1 [Compound 1333] , target or system recombinant human GBA (beta-glucocerebrosidase) (Homo sapiens).
Marked response: > 100 µM

Exam item: Provide the documented IC50 with recombinant human GBA (beta-glucocerebrosidase) (Homo sapiens) as the system for C[C@@H]1CN(c2ccc(NCc3ccc(CN4C[C@H](O)[C@@H](O)[C@H](O)[C@H]4CO)cc3)c([N+](=O)[O-])c2)C[C@H](C)O1 [Compound 1014]
Marked response: > 100 µM

Exam item: Entry Cc1cc(NCc2cccc(CN3C[C@H](O)[C@@H](O)[C@H](O)[C@H]3CO)c2)cc(C2=COCCO2)c1 [Compound 1032] , system recombinant human GBA (beta-glucocerebrosidase) (Homo sapiens): what IC50 was measured?
Marked response: > 100 µM

Exam item: Please state recorded IC50 (tested on recombinant human GBA (beta-glucocerebrosidase) (Homo sapiens)) of N#Cc1cc(NCc2ccc(CN3C[C@H](O)[C@@H](O)[C@H](O)[C@H]3CO)cc2)cc(-c2cccnn2)c1 [Compound 1064]
Marked response: 53.7 µM

Exam item: Lab note: need IC50 for COc1ccc(CCCCCN2C[C@H](O)[C@@H](O)[C@H](O)[C@H]2CO)cc1 [Compound 1310] on recombinant human GBA (beta-glucocerebrosidase) (Homo sapiens), anyone have it?
Marked response: 16.9 µM

Exam item: Missing value: IC50, recombinant human GBA (beta-glucocerebrosidase) (Homo sapiens), entry O=[N+]([O-])c1cc(N2CCOCC2)ccc1NCc1ccc(CN2C[C@@H](O)[C@H](O)[C@@H](O)[C@@H]2CO)cc1 (stereo in doubt) [Compound 1069] . Fill in?
Marked response: 3.09 µM

Exam item: // map O=[N+]([O-])c1cc(-c2cccnn2)ccc1NCc1cccc(CN2C[C@H](O)[C@@H](O)[C@H](O)[C@H]2CO)c1 [Compound 1089] to recorded IC50 (system: recombinant human GBA (beta-glucocerebrosidase) (Homo sapiens))
Marked response: 97.1 µM

Values were extracted from patent US20250197372A1.
